PDI: recorded values
# Experiment: Diameter and PDI from DLS measurements of mRNA nanoparticles with lipid amines
# Assay type: physicochemical
# Conditions Used: CFTR mRNA nanoparticle with lipid amine
Counter-ions that a name gives are not always drawn.

{"columns": ["Compound", "PDI"],
 "data": [
  ["CC(C)CCC[C@@H](C)[C@H]1CC[C@H]2[C@@H]3CC=C4C[C@@H](OC(=O)CCC(=O)N(CCCC(C)(C)N)CCC(C)(C)N)CC[C@]4(C)[C@H]3CC[C@]12C [SA166, dihydrochloride]", 0.16],
  ["C/C(=C/CCC(C)C)[C@H]1CC[C@H]2[C@@H]3CC=C4C[C@@H](OC(=O)N(CCCN)CCCCNCCCN)CC[C@]4(C)[C@H]3CC[C@]12C", 0.16],
  ["CC[C@H](CC[C@@H](C)[C@H]1CC[C@H]2[C@@H]3CC=C4C[C@@H](OC(=O)CCC(=O)N(CCC(C)(C)N)CCC(C)(C)N)CC[C@]4(C)[C@H]3CC[C@]12C)C(C)C [SA170, dihydrochloride]", 0.15]
]}
